- METHOD: Plasma pharmacokinetics in patients (LC-MS/MS, noncompartmental analysis)
- Type: in vivo, human
- TEST PARAMETERS: human, plasma, po, 22 mg, 22 mg oral, day 1; read-out: Cmax Geometric mean (%CV)
QUANTITY KIND: Cmax (ng/mL)
Please give a number only; it is taken to be in ng/mL.

Could you tell me which Cmax is on file for Cn1c(=O)c(F)c(Nc2ccc(I)cc2F)c2c(=O)n(C[C@@H](O)CO)cnc21 [TAK-733] ?
60

* * *

- METHOD: Plasma pharmacokinetics in patients (LC-MS/MS, noncompartmental analysis)
- Type: in vivo, human
- TEST PARAMETERS: human, plasma, po, 4.4 mg, 4.4 mg oral, day 1; read-out: AUC(0-τ) Geometric mean (%CV)
- Text: Quality controls, analyzed in duplicate over the validation range, and inter-assay precision, evaluated at each level in duplicate in six runs, met the performance and acceptance criteria. […]
QUANTITY KIND: AUC (ng·h/mL)
Please give a number only; it is taken to be in ng·h/mL.

Could you tell me which AUC is on file for Cn1c(=O)c(F)c(Nc2ccc(I)cc2F)c2c(=O)n(C[C@@H](O)CO)cnc21 ?
98.1
